Tested on: HCT 116 (colorectal carcinoma cell line)
Assay: cells
Type: cell-based, human
Conditions: Homo sapiens, HCT-116, 24 h, MTT, incubation 24 h, no copper added
Give IC50 for every item shown.

Field: example entries. Status: answers known.
COMPOUND | IC50
C=C(C)[C@@H]1CC[C@]2(COC(=O)CCC(=O)OCc3cn(CCCO[C@@H]4O[C@H](COC(C)=O)[C@@H](OC(C)=O)[C@H](OC(C)=O)[C@H]4OC(C)=O)nn3)CC[C@]3(C)C(CCC4[C@@]5(C)CC[C@H](OC(C)=O)C(C)(C)C5CC[C@]43C)C12 (stereo partly drawn) | > 200 µM
C=C(C)[C@@H]1CC[C@]2(COC(=O)CCC(=O)OCc3cn(C[C@H]4O[C@@H](OC(C)=O)[C@H](OC(C)=O)[C@@H](OC(C)=O)[C@H]4OC(C)=O)nn3)CC[C@]3(C)C(CCC4[C@@]5(C)CC[C@H](OC(C)=O)C(C)(C)C5CC[C@]43C)C12 (stereo partly drawn) | > 200 µM

Moving on to the next compound.
Report IC50 for C=C(C)[C@@H]1CC[C@]2(COC(=O)CCC(=O)OCc3cn(CCO[C@@H]4O[C@H](COC(C)=O)[C@@H](OC(C)=O)[C@H](OC(C)=O)[C@H]4OC(C)=O)nn3)CC[C@]3(C)C(CCC4[C@@]5(C)CC[C@H](O)C(C)(C)C5CC[C@]43C)C12 (stereo partly drawn) > 200 µM

Data provenance: paper PMC12153776
